Molecular target: Cytochrome P450 1A2 (Homo sapiens)
Experiment: Cytochrome panel assay with activity outcomes
Conditions: recombinant CYP, pro-luciferin dealkylation, luminescence, p450-cyp1a2; series mostly up to 57.1 µM
Hit rate of the full screen: of about 16,000 compounds, about 5,700 (36%) were called active. Another 24% or so got no clear call; they are omitted. Calls follow the shape of the dose curve; as a rule, active = well fitted curve in the direction sought with a large enough effect; inconclusive = small, poorly fitted or top-dose-only effect, or effect the other way; inactive = no such curve, though single readings can be large or run the other way. This is one part of the list.
Outcome codes: 1.0 (active), 0.0 (inactive)

INSERT INTO assay_data (compound, cat) VALUES
  ('O=c1[nH][nH]c(C(F)(F)F)c1C=Nc1ccccc1Cl', 1.0),
  ('COc1ccc(/C=N/n2c(C)nnc2C)c(OC)c1', 1.0),
  ('COc1ccc(NC(=O)CSc2ccc3c4c(cccc24)C(=O)c2ccccc2-3)cc1', 1.0),
  ('O=C(O)c1ccc(Sc2nnnn2-c2ccccc2)c([N+](=O)[O-])c1', 0.0),
  ('Cc1ccc(NC(=O)CN2C(=O)S/C(=C\c3cccn3C)C2=O)cc1', 0.0),
  ('COc1ccc(-n2nnnc2SCC(=O)Nc2ccccc2)cc1', 1.0),
  ('COc1ccc(NC(=O)CSc2nnc(C3CC3)n2-c2ccccc2)cc1', 0.0),
  ('O=C(OC(C(=O)NC1CCCC1)c1ccncc1)C1=Cc2ccccc2OC1 (stereo not drawn)', 1.0),
  ('CCOC(=O)COc1c(OC)cc(Cl)cc1C1Nc2ccccc2C(=O)N1c1cccc(C)c1 (stereo not drawn)', 0.0),
  ('COc1cc(CC(=O)O)c(C(C)=O)cc1OC', 0.0),
  ('COCCNc1ncnc2ccc(-c3cccnc3)cc12', 1.0),
  ('Cc1cc(C)n(-c2ccc(Cl)c(C(=O)O)n2)n1', 0.0),
  ('CCOC(=O)c1ccc(NC(=O)Nc2ccc3c4c(cccc24)C(=O)N3CC)cc1', 1.0);
